Hi there, I'd appreciate the recorded recombinant UMI read abundance (log10) for every entry that follows.
- procedureText: recombinant UMI read abundance after kanamycin selection (control-corrected) (log10(CPM+1)); higher = more efficient recombination; extreme values may be limits of the assay; sequences stand for … in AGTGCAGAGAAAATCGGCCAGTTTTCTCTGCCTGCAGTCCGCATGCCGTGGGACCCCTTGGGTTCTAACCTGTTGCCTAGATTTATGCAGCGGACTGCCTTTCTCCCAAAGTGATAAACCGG…AGGTTGGTTTCACT; site = the 11-nt donor;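 also: IS621 bridge recombinase in Escherichia coli cells against a fixed T5 target plasmid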

Value lookup for recombinant UMI read abundance (log10); key = CTAAGGCCATGGACCGGTTTTCCCGGTAATCCGTATTTGAC (site ATAAGGCCTGT) 0

What would you report for CTGCTGCCATGGACCGGTTTTCCCGGTAATCCGTATTTGCT (site CTGCTACCTAG) ? 0.00624

What would you report for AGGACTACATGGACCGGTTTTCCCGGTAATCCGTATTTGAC (site AGGACTTCTGT) ? 0.0138

What would you report for GGGGTAACATGGACCGGTTTTCCCGGTAATCCGTATTTGGG (site GGGGTAACTCC) ? 0.597

What would you report for CGCAGAACATGGACCGGTTTTCCCGGTAATCCGTATTTGTA (site CGCAGAACTTA) ? 2.19

What would you report for CCATAGTCATGGACCGGTTTTCCCGGTAATCCGTATTTGAA (site CCATAGTCTTT) ? 1.86

What would you report for TGCTGCCCATGGACCGGTTTTCCCGGTAATCCGTATTTGTC (site TGCTGCCCTGA) ? 0.338

What would you report for TAAGGTCCATGGACCGGTTTTCCCGGTAATCCGTATTTGTA (site TAAGGTCCTTA) ? 2.08

What would you report for CGACCGACATGGACCGGTTTTCCCGGTAATCCGTATTTGTT (site CGAGCGACTAA) ? 0.00884

What would you report for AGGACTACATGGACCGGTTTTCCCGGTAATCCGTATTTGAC (site AGGACTACTTT) ? 0.0694

What would you report for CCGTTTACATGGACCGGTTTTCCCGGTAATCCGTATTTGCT (site TCGTTTACTAG) ? 0

What would you report for TGTGCCCCATGGACCGGTTTTCCCGGTAATCCGTATTTGTA (site TGTGCCCCTTA) ? 0.0922

What would you report for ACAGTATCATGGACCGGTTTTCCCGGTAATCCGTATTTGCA (site ATGGTATCTTG) ? 1.7

What would you report for GTATGAACATGGACCGGTTTTCCCGGTAATCCGTATTTGAG (site GTATGAACTCT) ? 1.87

What would you report for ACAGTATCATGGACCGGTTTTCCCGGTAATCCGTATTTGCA (site AAAGTATCTAG) ? 0

What would you report for ATCCAAGCATGGACCGGTTTTCCCGGTAATCCGTATTTGGG (site ATCCAAGCTCC) ? 0.365

What would you report for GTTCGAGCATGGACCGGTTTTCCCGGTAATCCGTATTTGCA (site GTTCGTGCTTG) ? 0.477

What would you report for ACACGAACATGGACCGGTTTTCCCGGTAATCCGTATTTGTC (site ACACGCACTGA) ? 0

---

- procedureText: recombinant UMI read abundance after kanamycin selection (control-corrected) (log10(CPM+1)); higher = more efficient recombination; extreme values may be limits of the assay; sequences stand for … in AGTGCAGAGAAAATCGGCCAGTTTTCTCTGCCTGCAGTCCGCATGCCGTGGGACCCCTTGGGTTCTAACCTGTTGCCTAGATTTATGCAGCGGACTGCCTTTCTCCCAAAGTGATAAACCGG…AGGTTGGTTTCACT; site = the 11-nt donor
Decide by recombinant UMI read abundance (log10): equal to or exceeding 1 means condition met, less means condition not met.

Identify whether the reported recombinant UMI read abundance (log10) of the following sequence is 1 or greater: AACTGTCCATGGACCGGTTTTCCCGGTAATCCGTATTTGAT (site AACCGTCCTAT) condition not met

What would you report for CGATAGACATGGACCGGTTTTCCCGGTAATCCGTATTTGAG (site CGGTAGACTCT) ? condition not met

What would you report for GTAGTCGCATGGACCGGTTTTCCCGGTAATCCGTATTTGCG (site GTACTCGCTCG) ? condition not met

What would you report for GTAGTGACATGGACCGGTTTTCCCGGTAATCCGTATTTGCC (site GTAGTGACTGG) ? condition met

What would you report for CTGACTCCATGGACCGGTTTTCCCGGTAATCCGTATTTGGG (site CTGACTCCTCC) ? condition not met

What would you report for GTTGCGGCATGGACCGGTTTTCCCGGTAATCCGTATTTGCT (site ATTGCGGCTAG) ? condition met

What would you report for GGTACATCATGGACCGGTTTTCCCGGTAATCCGTATTTGAG (site GGTACATCTCT) ? condition not met

What would you report for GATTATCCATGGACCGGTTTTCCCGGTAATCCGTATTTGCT (site GATTTTCCTAG) ? condition not met

What would you report for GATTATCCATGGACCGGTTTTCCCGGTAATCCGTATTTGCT (site GATTATCCTAT) ? condition not met

What would you report for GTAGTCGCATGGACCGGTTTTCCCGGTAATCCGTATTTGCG (site GTAGTCGCTCA) ? condition not met

What would you report for GACAATACATGGACCGGTTTTCCCGGTAATCCGTATTTGGC (site GACAATACTGC) ? condition met

What would you report for ACGCAACCATGGACCGGTTTTCCCGGTAATCCGTATTTGCT (site ACGCAACCTAG) ? condition not met

What would you report for GAGCTCACATGGACCGGTTTTCCCGGTAATCCGTATTTGAA (site GAGCTCACTTT) ? condition met

What would you report for GCGTGCCCATGGACCGGTTTTCCCGGTAATCCGTATTTGAT (site GCGTGCCCTAT) ? condition not met

What would you report for GAGGAATCATGGACCGGTTTTCCCGGTAATCCGTATTTGCG (site TAGGAATCTCG) ? condition met

What would you report for TAGAATACATGGACCGGTTTTCCCGGTAATCCGTATTTGGA (site TAGAATACTTT) ? condition not met

What would you report for TAGGATACATGGACCGGTTTTCCCGGTAATCCGTATTTGCA (site TAGTATACTTG) ? condition met

What would you report for ATCTACACATGGACCGGTTTTCCCGGTAATCCGTATTTGAC (site ATCTACACTGT) ? condition met
